tested on: BGC-823 (human gastric cancer cells); test: Inhibition of proliferation of tumor cell lines (MTT), BGC-823; type: cell-based; details: Homo sapiens, BGC-823, 72 h, read-out: IC50 value of compound for inhibition of proliferation of tumor cell lines, BGC-823
ENDPOINT: IC50

Some solved cases for reference:
MOLECULE: C/C=C(/C)C(=O)O[C@H]1C(C)=C[C@]23C(=O)[C@@H](C=C(CO)[C@@H](O)[C@]12O)[C@@H]1C(C)(C)[C@]1(OC(C)=O)C[C@H]3C [Compound 8, 3-O-angeloyl-13-O-acetyl-ingenol]
IC50: > 100 µg/mL
//
MOLECULE: CCCCCCCCCCCC(=O)O[C@@]12C[C@@H](C)[C@]34C=C(C)[C@H](OC(=O)C(C)(C)C)[C@@]3(O)[C@H](O)C(CO)=C[C@H](C4=O)[C@@H]1C2(C)C
IC50: 6.81 µg/mL

Let us move to another entry and its IC50.
Qu. Return IC50 (reported value) for this molecule: CC1=C[C@]23C(=O)[C@@H](C4OC4(C)[C@@H](O)[C@]2(O)[C@H]1O)[C@H]1C(C[C@H]3C)C1(C)C (stereo partly drawn) [Compound 1e, 6,7-epoxy-20-deoxy-ingenol]
Ans. > 200 µg/mL

----------
system: BGC-823 (human gastric cancer cells); assay: Inhibition of proliferation of tumor cell lines (MTT), BGC-823; assay type: cell-based; details: Homo sapiens, BGC-823, 72 h, read-out: IC50 value of compound for inhibition of proliferation of tumor cell lines, BGC-823
ENDPOINT: IC50 (µg/mL)
Numbers only; they are read as µg/mL.

COMPOUND: C/C=C(/C)C(=O)O[C@H]1C(C)=C[C@]23C(=O)[C@@H](C=C(CO)[C@@H](O)[C@]12O)[C@@H]1C(C)(C)[C@]1(OC(=O)CCCCCCCCCCC)C[C@H]3C [Compound 9, 3-O-angeloyl-13-O-dodecanoyl-ingenol]
IC50 [µg/mL]: 0.85

Let us move to another entry and its IC50.
Qu. Return IC50 (reported value) for this compound: C/C=C(/C)C(=O)O[C@H]1C(C)=C[C@]23C(=O)[C@@H](C=C(CO)[C@@H](O)[C@]12O)[C@@H]1C(C)(C)[C@]1(OC(=O)CCCCC)C[C@H]3C [Compound 17, 3-O-angeloyl-13-O-hexanoyl-ingenol]
Ans. 21.7

----------
System: B16-F0 mouse melanoma
Experiment: Antitumor activity in B16-F0 mouse melanoma model
Assay type: in vivo
Settings: female C57BL/6J mice, intradermal B16 tumor, skin administration once per day for 3 days, 20 μL/mouse, tumor weight on day 19
Description: This Example investigated the antitumor activity of compounds in B16-F0 mouse melanoma model. In vitro passage of B16-F0 tumor source was inoculated subcutaneously into female C57BL/6J mice, and passage was carried out after tumor formation. […]
The entries below are paired with their reported Tumor-inhibition rate.
Numbers only; they are read as %.

Some solved cases for reference:
QUERY_SMILES: CCCCCCCCCCCC(=O)O[C@@]12C[C@@H](C)[C@]34C=C(C)[C@H](OC(=O)C(C)=C(C)C)[C@@]3(O)[C@H](O)C(CO)=C[C@H](C4=O)[C@@H]1C2(C)C
Tumor-inhibition rate (%): 64.1

QUERY_SMILES: CCCCCCCCCCCC(=O)O[C@@]12C[C@@H](C)[C@]34C=C(C)[C@H](O)[C@@]3(O)[C@H](O)C(COC(C)=O)=C[C@H](C4=O)[C@@H]1C2(C)C
Tumor-inhibition rate (%): 40.7

QUERY_SMILES: C/C=C(/C)C(=O)O[C@H]1C(C)=C[C@]23C(=O)[C@@H](C=C(CO)[C@@H](O)[C@]12O)[C@@H]1C(C)(C)[C@]1(OC(=O)CCCCCCCCC)C[C@H]3C
Tumor-inhibition rate (%): 65.7

QUERY_SMILES: C/C=C(/C)C(=O)O[C@H]1C(C)=C[C@]23C(=O)[C@@H](C=C(CO)[C@@H](O)[C@]12O)[C@@H]1C(C)(C)[C@]1(OC(=O)CCCCCCCCCCC)C[C@H]3C
Tumor-inhibition rate (%): 71.8

QUERY_SMILES: C/C=C(/C)C(=O)O[C@H]1C(C)=C[C@]23C(=O)[C@@H](C=C(CO)[C@@H](O)[C@]12O)[C@@H]1C(C)(C)[C@]1(OC(C)=O)C[C@H]3C
Tumor-inhibition rate (%): 90.3

QUERY_SMILES: C/C=C(/C)C(=O)O[C@H]1C(C)=C[C@]23C(=O)[C@@H](C=C(CO)[C@@H](O)[C@]12O)[C@@H]1C(C)(C)[C@]1(OC(=O)CCC)C[C@H]3C
Tumor-inhibition rate (%): 89.6

QUERY_SMILES: CCCCCCCCCCCC(=O)O[C@@]12C[C@@H](C)[C@]34C=C(C)[C@H](OC(=O)c5c(CC)noc5CC)[C@@]3(O)[C@H](O)C(CO)=C[C@H](C4=O)[C@@H]1C2(C)C
Tumor-inhibition rate (%): 39.5

QUERY_SMILES: CCCCCCCCCCCC(=O)O[C@@]12C[C@@H](C)[C@]34C=C(C)[C@H](OC(=O)C(C)(C)C)[C@@]3(O)[C@H](O)C(CO)=C[C@H](C4=O)[C@@H]1C2(C)C
Tumor-inhibition rate (%): 47.4

QUERY_SMILES: C/C=C(/C)C(=O)O[C@H]1C(C)=C[C@]23C(=O)[C@@H](C=C(CO)[C@@H](O)[C@]12O)[C@@H]1C(C)(C)[C@]1(OC(=O)CCCCCCC)C[C@H]3C
Tumor-inhibition rate (%): 59.0

Let us move to another entry and its Tumor-inhibition rate.
Qu. Return Tumor-inhibition rate (reported value) for this compound: C/C=C(/C)C(=O)O[C@H]1C(C)=C[C@]23C(=O)[C@@H](C=C(CO)[C@@H](O)[C@]12O)[C@@H]1C(C)(C)[C@]1(OC(=O)CCCCC)C[C@H]3C
Ans. 68.8

----------
tested on: K562 (human leukemia cells); assay: Inhibition of proliferation of tumor cell lines (MTT), K562; assay type: cell-based; conditions: Homo sapiens, K562, 72 h, read-out: IC50 value of compound for inhibition of proliferation of tumor cell lines, K562
The entries below are paired with their reported log10(IC50).
Annotation: log10 of IC50, µg/mL basis.

Some solved cases for reference:
COMPOUND: CCCCCCCCCCCC(=O)O[C@@]12C[C@@H](C)[C@]34C=C(C)[C@H](OC(=O)c5c(CC)noc5CC)[C@@]3(O)[C@H](O)C(CO)=C[C@H](C4=O)[C@@H]1C2(C)C
log10(IC50): 0.06

COMPOUND: CCCCCCCCCC(=O)O[C@@]12C[C@@H](C)[C@]34C=C(C)[C@H](O)[C@@]3(O)[C@H](O)C(CO)=C[C@H](C4=O)[C@@H]1C2(C)C
log10(IC50): -0.15

Qu. Lab note: K562 (human leukemia cells) assay, enter log10(IC50) for CCCCCCCCCCCC(=O)O[C@@]12C[C@@H](C)[C@]34C=C(C)[C@H](O)[C@@]3(O)[C@H](O)C(COC(=O)C(C)C(C)C)=C[C@H](C4=O)[C@@H]1C2(C)C (some centres unmarked) here
Ans. -0.19

Qu. Lab note: K562 (human leukemia cells) assay, enter log10(IC50) for CCCCCCCC(=O)O[C@@]12C[C@@H](C)[C@]34C=C(C)[C@H](O)[C@@]3(O)[C@H](O)C(CO)=C[C@H](C4=O)[C@@H]1C2(C)C here
Ans. 0.24

Qu. Lab note: K562 (human leukemia cells) assay, enter log10(IC50) for C/C=C(/C)C(=O)O[C@H]1C(C)=C[C@]23C(=O)[C@@H](C=C(CO)[C@@H](O)[C@]12O)[C@@H]1C(C)(C)[C@]1(OC(=O)CCC)C[C@H]3C here
Ans. 0.62

Qu. Lab note: K562 (human leukemia cells) assay, enter log10(IC50) for C/C=C(/C)C(=O)OCC1=C[C@@H]2C(=O)[C@]3(C=C(C)[C@H](OC(=O)/C(C)=C\C)[C@@]3(O)[C@@H]1O)[C@H](C)C[C@]1(OC(=O)CCCCCCCCCCC)[C@H]2C1(C)C [Compound 15a] here
Ans. 0.51

Qu. Lab note: K562 (human leukemia cells) assay, enter log10(IC50) for C/C=C(/C)C(=O)O[C@H]1C(C)=C[C@]23C(=O)[C@@H](C=C(CO)[C@@H](O)[C@]12O)[C@@H]1C(C)(C)[C@]1(OC(C)=O)C[C@H]3C here
Ans. -2.19

Qu. Lab note: K562 (human leukemia cells) assay, enter log10(IC50) for CCCCCCCCCCCC(=O)O[C@@]12C[C@@H](C)[C@]34C=C(C)[C@H](O)[C@@]3(O)[C@@H]3OC(C)(C)OCC3=C[C@H](C4=O)[C@@H]1C2(C)C [Compound 2b, 13-O-dodecanoyl-ingenol 5,20-acetonide] here
Ans. -0.07
